- System: colorectal cancer cell lines (e.g. DLD-1, HCT 116, SW620, HCT-15, HCT-8, RKO)
- methodDescription: Cell based assay, cell viability (CellTiter-Glo), colorectal cancer cell lines
- protocolConditions: Homo sapiens, HCT 116, 72 hours treatment, read-out: IC50, colorectal cancer cell line HCT 116
Listing: IC50 of selected molecules
assayReadout: IC50 (µM)

> print(dat)
                                    molecule  qualifiersign  measuredvalue
 1  CC(=O)c1c([S+]([O-])Cc2cccc(C#N)c2)[nH]c2c(Br)ccc(Cl)c2c1=O (stereo not shown) [Compound 28]              =           0.96
 2  CC(=O)c1c([S+]([O-])Cc2ccc(F)c(Cl)c2)[nH]c2c(Br)ccc(Cl)c2c1=O (stereo not shown) [Compound 31]              =           1.18
 3  CC(=O)c1c(S(C)(=O)=O)n(S(=O)(=O)c2ccc(C(C)(C)C)cc2)c2c(Br)ccc(Cl)c2c1=O [Compound 41]              >              2
 4  CC(=O)c1c(SCc2ccccc2)[nH]c2c(Br)ccc(Cl)c2c1=O [Compound 3]              >              2
 5  CC(=O)c1c([S+]([O-])Cc2ccc(C(F)(F)F)o2)[nH]c2c(F)ccc(F)c2c1=O (stereo not shown) [Compound 81]              >              2
 6  CSc1c(C(C)=O)c(=O)c2c(Cl)ccc(Br)c2n1S(=O)(=O)c1ccc(C(C)(C)C)cc1 [Compound 40]              >              2
 7  CC(=O)c1c([S+]([O-])c2ccc(Br)cc2)[nH]c2c(Br)ccc(Cl)c2c1=O (stereo not shown) [Compound 17]              >              2
 8  CC(=O)c1c(SCc2ccc(F)c(Cl)c2)[nH]c2c(Br)ccc(Cl)c2c1=O [Compound 30]              >              2
 9  CC(=O)c1c([S+]([O-])Cc2ccccc2)nc2c(Br)ccc(Cl)c2c1O (stereo not shown) [Compound 53]              >              2
10  CC(=O)c1c([S+]([O-])Cc2ccccc2C#N)[nH]c2c(Br)ccc(Cl)c2c1=O (stereo not shown) [Compound 58]              =           1.09
11  CC(=O)c1c(S(C)(=O)=O)n(C(=O)c2ccc(Br)cc2)c2c(Br)ccc(Cl)c2c1=O [Compound 21]              >              2
12  CC(=O)c1c([S+]([O-])Cc2cccc(S(F)(F)(F)(F)F)c2)[nH]c2c(Br)ccc(Cl)c2c1=O (stereo not shown) [Compound 77]              =           1.45
13  CC(=O)c1c([S+](C)[O-])[nH]c2c(Cl)ccc(Cl)c2c1=O (stereo not shown) [Compound 6]              =           1.48
14  CC(=O)c1c([S+]([O-])Cc2cc(Cl)ccc2Cl)[nH]c2c(Br)ccc(Cl)c2c1=O (stereo not shown) [Compound 44]              =            1.2
15  CC(=O)c1c([S+](C)[O-])n(S(=O)(=O)C(F)(F)F)c2c(Br)ccc(Cl)c2c1=O (stereo not shown) [Compound 36]              >              2
16  CC(=O)c1c([S+]([O-])Cc2ccc([N+](=O)[O-])cc2)[nH]c2c(Br)ccc(Cl)c2c1=O (stereo not shown) [Compound 33]              =           1.33

---

- System: colorectal cancer cell lines (e.g. DLD-1, HCT 116, SW620, HCT-15, HCT-8, RKO)
- methodDescription: Cell based assay, cell viability (CellTiter-Glo), colorectal cancer cell lines
- protocolConditions: Homo sapiens, LoVo cells, 72 hours treatment, read-out: IC50, colorectal cancer cell line LoVo
pIC50: −log10 of the molar value.
Listing: pIC50 of selected compounds
assayReadout: pIC50

> print(dat)
                                   compound  measuredvalue
1  CC(=O)c1c([S+]([O-])CN2C(=O)c3ccccc3C2=O)[nH]c2c(Cl)ccc(Cl)c2c1=O (centres unmarked)         < 5.70
2  COc1cccc2[nH]c([S+]([O-])Cc3ccc(S(F)(F)(F)(F)F)cc3)c(C(C)=O)c(=O)c12 (centres unmarked)         < 5.70
3  CC(=O)c1c([S+]([O-])Cc2nonc2C)[nH]c2c(Br)ccc(Cl)c2c1=O (centres unmarked)         < 5.70
4  CC(=O)c1c([S+]([O-])Cc2cc(C)on2)[nH]c2c(F)ccc(F)c2c1=O (centres unmarked)         < 5.70
5  CC(=O)c1c([S+]([O-])Cc2ccc(N)nc2)[nH]c2c(Br)ccc(Cl)c2c1=O (centres unmarked)         < 5.70
6  COc1cccc2[nH]c(SCc3ccc(S(F)(F)(F)(F)F)cc3)c(C(C)=O)c(=O)c12         < 5.70
7  Cc1cc(C[S+]([O-])c2[nH]c3c(Cl)ccc(Cl)c3c(=O)c2C(=O)C2CC2)no1 (centres unmarked)           5.82
8  CC(=O)c1c([S+]([O-])Cc2cccnc2)[nH]c2c(Br)ccc(Cl)c2c1=O (centres unmarked)           5.71

---

- Test system: melanoma cell lines
- methodDescription: Cell based assay, cell viability (CellTiter-Glo), melanoma cell lines
- protocolConditions: Homo sapiens; LOX-IMVI cell line
assayReadout: IC50 (nM)

> print(dat)
                                   compound  assayreadout  measuredvalue
1  CC(=O)c1c([S+]([O-])Cc2ccc(C(C)(C)C)cc2)[nH]c2c(Br)ccc(Cl)c2c1=O (stereo not shown)          IC50           1670
2  CC(=O)c1c([S+]([O-])Cc2ccc(Cl)nc2)[nH]c2c(Br)ccc(Cl)c2c1=O (stereo not shown)          IC50            880
3  CC(=O)c1c([S+](C)[O-])[nH]c2c(Br)ccc(Cl)c2c1=O (stereo not shown)          IC50           1500
4  COc1cc(C[S+]([O-])c2[nH]c3c(Br)ccc(Cl)c3c(=O)c2C(C)=O)cc(OC)c1 (stereo not shown)          IC50           1060

---

- System: bladder cancer cell lines
- methodDescription: Cell based assay, cell viability (CellTiter-Glo), bladder cancer cell lines
- protocolConditions: MBT-2 cells; 72 hours treatment; 0 to 2 μM; CellTiter-Glo; read-out: IC50, bladder cancer cell line MBT-2
Listing: IC50 of selected compounds
assayReadout: IC50

> print(dat)
                                    compound                studysystem  assayreadout  measuredvalue
 1  CC(=O)c1c(SC(C)C)[nH]c2c(Br)ccc(Cl)c2c1=O  bladder cancer cell lines          IC50      > 2000 nM
 2  CC(=O)c1c([S+](C)[O-])n(S(=O)(=O)C(F)(F)F)c2c(Br)ccc(Cl)c2c1=O (centres unmarked)  bladder cancer cell lines          IC50        1280 nM
 3  CC(=O)c1c([S+](C)[O-])n(Cc2ccc(F)c(Cl)c2)c2c(Br)ccc(Cl)c2c1=O (centres unmarked)  bladder cancer cell lines          IC50      > 2000 nM
 4  CC(=O)c1c(SCc2ccc(Cl)cc2)[nH]c2c(Br)ccc(Cl)c2c1=O  bladder cancer cell lines          IC50      > 2000 nM
 5  CC(=O)c1c(SCc2cccc(F)c2)[nH]c2c(Br)ccc(Cl)c2c1=O  bladder cancer cell lines          IC50      > 2000 nM
 6  CC(=O)c1c([S+](C)[O-])n(S(=O)(=O)c2ccc(C(C)(C)C)cc2)c2c(Br)ccc(Cl)c2c1=O (centres unmarked)  bladder cancer cell lines          IC50      > 2000 nM
 7  CC(=O)c1c([S+]([O-])Cc2ccc(S(F)(F)(F)(F)F)cc2)[nH]c2c(Br)ccc(Cl)c2c1=O (centres unmarked)  bladder cancer cell lines          IC50        1070 nM
 8  CC(=O)c1c([S+](C)[O-])[nH]c2c(Cl)ccc(Cl)c2c1=O (centres unmarked)  bladder cancer cell lines          IC50        1440 nM
 9  CCS(=O)(=O)n1c([S+](C)[O-])c(C(C)=O)c(=O)c2c(Cl)ccc(Br)c21 (centres unmarked)  bladder cancer cell lines          IC50      > 2000 nM
10  CSc1c(C(C)=O)c(=O)c2c(Cl)ccc(Br)c2n1S(=O)(=O)c1ccc(Cl)cc1  bladder cancer cell lines          IC50      > 2000 nM
11  CC(=O)c1c(SCc2ccc(F)c(Cl)c2)[nH]c2c(Br)ccc(Cl)c2c1=O  bladder cancer cell lines          IC50      > 2000 nM
12     CSc1[nH]c2c(Br)ccc(Cl)c2c(=O)c1C(C)=O  bladder cancer cell lines          IC50      > 2000 nM
13  CC(=O)c1c(S/C=C\C(=O)O)[nH]c2c(Br)ccc(Cl)c2c1=O  bladder cancer cell lines          IC50      > 2000 nM
14  CC(=O)c1c([S+]([O-])Cc2ccc(S(F)(F)(F)(F)F)cc2F)[nH]c2c(Br)ccc(Cl)c2c1=O (centres unmarked)  bladder cancer cell lines          IC50        1260 nM
15     CSc1c(C(C)=O)c(=O)c2c(Cl)ccc(Br)c2n1C  bladder cancer cell lines          IC50      > 2000 nM
16   COCSc1[nH]c2c(Br)ccc(Cl)c2c(=O)c1C(C)=O  bladder cancer cell lines          IC50      > 2000 nM
17  CC(=O)c1c([S+]([O-])C(C)C)[nH]c2c(Br)ccc(Cl)c2c1=O (centres unmarked)  bladder cancer cell lines          IC50      > 2000 nM
